Reported viability values for a set of compounds
- assay-procedure: growth inhibitors of H69AR lung tumor, primary screen, human, duplicate replicates (AID 580);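 note: 100% = mean luminescence of untreated wells and 0% = no signal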
- test-conditions: H69AR lung tumor cells viability, ATP luminescence, 72 h; at 10 µM; active compounds read low
Just the number in %, nothing appended.

COCCSc1nnc(NC(=O)CSCc2ccccc2)s1 ... 93.1

Q: Look up and state reported viability for COc1ccccc1CNC(=O)C(C)NS(=O)(=O)c1ccccc1 (stereo not drawn)
A: 87.1

Q: Look up and state reported viability for Cc1ccc(-n2c(SCC3CCCCO3)nnc2-c2ccco2)cc1 (stereo not drawn)
A: 91.4

Q: Look up and state reported viability for CCC(C)NC(=O)CCNS(=O)(=O)c1ccc(Br)cc1 (stereo not drawn)
A: 98.5

Q: Look up and state reported viability for "C=CCN=C1SCC(=O)N1S(=O)(=O)c1ccc(C)cc1"
A: 113

Q: Look up and state reported viability for "COc1ccc(NC(=O)c2oc3ccccc3c2NC(=O)c2ccco2)cc1"
A: 78.4

Q: Look up and state reported viability for "Cn1c(Cc2csc(N)n2)nnc1SCC(=O)NC1CCCCC1"
A: 96.8

Q: Look up and state reported viability for O=C(O)C1CCCN1c1ncnc2c1oc1ccccc12 (stereo not drawn)
A: 92.3

Q: Look up and state reported viability for Cc1ccc(N(CC(O)CN2CCCC2)S(=O)(=O)c2ccc(C)cc2)cc1 (stereo not drawn)
A: 86.9
